# Tested on: MCF7 breast
# Assay details: NCI-60 one-dose screen, 48 h
# Condition notes: 10 µM unless noted
Compounds without any hit were thinned out: in the full panel of roughly 83,000, 20% have a hit. Active and inactive are the calls of the source. Rule for the calls: active = growth percent below 10; inactive = the rest.
A correct response names exactly one class from active, inactive

compound="CCC(C)C1NC(=O)C(CCNCS(=O)(=O)O)NC(=O)C(NC(=O)C(CCNCS(=O)(=O)O)NC(=O)C(NC(=O)C(CCNCS(=O)(=O)O)NC(=O)CCCCC(C)C)C(C)O)CCNC(=O)C(C(C)O)NC(=O)C(CCNCS(=O)(=O)O)NC(=O)C(CCNCS(=O)(=O)O)NC(=O)C(C(C)CC)NC1=O (stereo not given)" qualitative_label=inactive
compound=COc1ccccc1NC(=O)c1sc2nc3c(cc2c1N)C(=O)CCC3 qualitative_label=inactive
compound="BrC1CC(Br)c2c1c1c(c3c2C(Br)CC3Br)C(Br)CC1Br (stereo not given)" qualitative_label=inactive

What is the recorded call for this compound in the test? O=C(Nc1nc(-c2ccc(Cl)cc2)cs1)c1cc(-c2ccc(Br)cc2)nc2ccc(Cl)cc12
inactive

What is the recorded call for this compound in the test? CCc1ccc(-c2nc(SCC(=O)NC3CCCCC3)n[nH]2)cc1
inactive

What is the recorded call for this compound in the test? Cc1ccc2c(c1)C(=O)/C(=C\Nc1ccc(C(N)=O)cc1)C(O)O2 (stereo not given)
inactive

What is the recorded call for this compound in the test? CC1C(=O)NC2=Nc3ccccc3C(=O)NN21 (stereo not given)
inactive

What is the recorded call for this compound in the test? CC1(C)CC2(C)CC(=O)C1C(C(=O)O)C2C(=O)O (stereo not given)
inactive

What is the recorded call for this compound in the test? O=C1c2cccc(NCCN=Cc3ccccc3O)c2C(=O)c2c(NCCN=Cc3ccccc3O)cccc21
active
